# credit: patent US20100022483A1

system: gram negative bacteria; assay: In vitro anti-bacterial activity assay (broth dilution MIC), gram negative bacteria; format: cell-based, E. coli; conditions: Escherichia coli, 18 h, E. coli MG 1655; read-out: Median MIC's G− E. coli MG 1655
Reported MIC values follow for various molecules
The answer is to be given in µg/mL; state only the numeric part.

{"molecular-string": "COCC(=O)c1ccc(O)c2c1C[C@H]1C[C@H]3[C@H](N(C)C)C(O)=C(C(N)=O)C(=O)[C@@]3(O)C(O)=C1C2=O", "assay-readout": "MIC", "quantitative-readout": 0.5}

Please look at the following molecule next.
Param item: `CN(C)[C@H]1C(O)=C(C(N)=O)C(=O)[C@@]2(O)C(O)=C3C(=O)c4c(O)ccc(-c5cnc6ccccc6c5)c4C[C@H]3C[C@@H]12` ; param system: gram negative bacteria; output MIC: 64
